Entry source: a melting point compilation (Tetko et al.; mined from patent text by program, amines drawn as free bases though some values may be those of a salt)

// melting point lookup, one value per entry

Here's what some known entries look like.
Molecule	Data value
COCCOc1ccc2c(=O)c(C#N)c[nH]c2c1	> 250 °C
Brc1cnc(-c2ccccc2)c2ccccc12	123 to 125 °C
Nc1c(-c2ccc(-c3ccc(F)cc3)c(F)c2)nc2ccc(F)cc2c1C(=O)O	245 to 247 °C
O=C(Nc1ccccn1)Nc1cccc2c1C1CC3(CCN1C2=O)OCCO3 (stereo unspecified)	178 to 180 °C
CCOC(=O)CCCn1cc(C(=O)c2ccc(OCc3ccc(C)cc3)c(O)c2)c2ccccc21	125 to 127 °C

Exercise: Suppose we examine the molecule CCN1CC(C)=CC2=C1N1CN(OC)C=C1N=N2 ; what melting point value has been reported?
Solution: 202 to 203 °C

Exercise: Suppose we examine the molecule CCC(C)OC(=O)CCC(S)(C#N)C1=NCCc2cc(OC)c(OC)cc21 (stereo unspecified) ; what melting point value has been reported?
Solution: 120 °C

Exercise: Suppose we examine the molecule CC1=NC(=O)C(Cc2c[nH]c3ccccc23)N(O)C1=O (stereo unspecified) ; what melting point value has been reported?
Solution: 166 to 168 °C

Exercise: Suppose we examine the molecule CCOC(=O)c1cnc2n(c1=O)C(C)CC=C2Nc1ccccc1 (stereo unspecified) ; what melting point value has been reported?
Solution: 119 to 120 °C

Exercise: Suppose we examine the molecule COC(=O)c1cccc(-c2nc(-c3ccc(C(F)(F)F)cc3)cs2)c1 ; what melting point value has been reported?
Solution: 142 to 143 °C

====

Measurement kind: melting point

Exercise: Suppose we examine the compound Nc1nc(-c2cc(F)cc(F)c2)nc2nc(-c3ccco3)nn12 ; what melting point value has been reported?
Solution: 356 to 360 °C

Exercise: Suppose we examine the compound O=C(Nc1cccc(C(F)(F)F)c1)c1ccccc1O ; what melting point value has been reported?
Solution: 188 to 191 °C

Exercise: Suppose we examine the compound Cc1cc(C)cc(Sc2[nH]c(C)nc2CO)c1 ; what melting point value has been reported?
Solution: 199 to 201 °C

Exercise: Suppose we examine the compound O=C(c1ccc(Cl)cc1)c1cc(C2(Nc3ccccc3)OCCO2)ccn1 ; what melting point value has been reported?
Solution: 102 to 103 °C

====

// melting point lookup, one value per entry

Molecule	Data value
Cn1c(Oc2cccc(C(F)(F)F)c2)nc2c(-c3cccc(C(=O)NCCO)c3)cccc21	139 to 140 °C
Cc1nc(-c2ccc(-c3ccccc3S(=O)(=O)Nc3onc(C)c3C)cc2)co1	90 to 100 °C
COc1ccnc(N2CCN(C(=O)c3cc4ccccc4[nH]3)CC2)n1	202 to 203 °C
CCOC(=O)N(Cn1cc(Cl)cnc1=O)c1ccccc1	174 °C
CC(C(=O)O)c1ccc2c(c1)C(c1ccccc1)=NCC(=O)N2 (stereo not drawn)	252 to 255 °C
CC(C)(C)OC(=O)C1CCNC1=S (stereo not drawn)	110 to 111 °C

Let us move to another entry and its melting point.
Exercise: Suppose we examine the molecule Cc1cc(C=O)ccc1-c1ccc(O)cc1 ; what melting point value has been reported?
Solution: 94 to 96 °C

====

// melting point lookup, one value per entry

Compound	melting point
CN(C(=O)N1Cc2ncn(Cc3ccccc3)c2CC1C(=O)O)c1ccccc1 (centres undefined)	220 to 222 °C
O=C1C2CC3=C(CN2C(=O)N1c1ccccc1)N(Cc1ccccc1)CN3 (centres undefined)	227 to 229 °C
CCCC(=O)Cc1ccc(C(=O)Nc2ccc3cc(CN4CCCC4)cnc3c2C)cc1	139 to 140 °C

Let us move to another entry and its melting point.
Exercise: Suppose we examine the compound Cc1ccc(-c2ccc(-c3ccccc3)cc2)n1CC[C@H]1C[C@H](O)CC(=O)O1 (relative stereo) ; what melting point value has been reported?
Solution: 104 to 107 °C

====

// melting point lookup, one value per entry

Compound	Data value
O=C1C=CC(=O)N1c1ccc(S(=O)(=O)C(I)I)cc1	217 °C

Let us move to another entry and its melting point.
Exercise: Suppose we examine the compound CCOC(=O)[C@H](CCSCC)NC(=O)C(CSC(C)=O)Cc1ccccc1 (stereo not given in full) ; what melting point value has been reported?
Solution: 79 to 84 °C

====

// melting point lookup, one value per entry

Compound	Data value
COc1ccc2nc([C@H](CC(C)C)NC(=O)OCc3ccccc3)[nH]c2c1	73 to 77 °C
CC(C)(C)OC(=O)CN1C(=O)C(N)C1CCc1ccco1 (stereo not given)	85 to 87 °C
OCC1(c2ccc(Cl)cc2)CCN(CCC(c2ccccc2)(c2ccccc2)c2ccccc2)CC1	156 to 158 °C
O=[N+]([O-])C=C1CN=C(c2ccccc2)c2sccc2N1	160 to 163 °C

Let us move to another entry and its melting point.
Exercise: Suppose we examine the compound COC(=O)C1CCCn2c(C(=O)c3ccc(F)cc3)ccc21 (stereo not given) ; what melting point value has been reported?
Solution: 78 to 79 °C

====

Measurement kind: melting point

Exercise: Suppose we examine the compound CCOc1ccc2c(c1)C(N)(c1ccccc1Cl)C(=O)N2Cc1ccc(C(=O)NC(C)(C)CN(CC)CC)cc1 (stereo not given) ; what melting point value has been reported?
Solution: 59 °C

Exercise: Suppose we examine the compound COc1cc(O)cc2cc(-c3ccc(O)cc3)oc12 ; what melting point value has been reported?
Solution: 167 to 168 °C

====

Measurement kind: melting point

Compound	melting point
CC(CCCC(=O)CCCC(C)(C(=O)O)c1ccccc1)(C(=O)O)c1ccccc1 (stereo unspecified)	44 to 46 °C
COc1cc(COc2nn(-c3ccccc3)cc2/C=C/C#N)ccc1OCc1nc(-c2ccco2)oc1C	177 to 178 °C
CSc1nc(O)c2c(n1)CCCS2	248 °C

Exercise: Suppose we examine the compound CCCC(=O)CN1CCC(CCN2CCN(c3cccc(C)c3C)CC2)CC1 ; what melting point value has been reported?
Solution: 47 °C

Exercise: Suppose we examine the compound NCc1noc(-c2ncn3c2[C@@H]2CCCN2C(=O)c2sccc2-3)n1 ; what melting point value has been reported?
Solution: 156 to 158 °C

Exercise: Suppose we examine the compound NCC1Cc2c(F)c(F)cc(-c3ccccc3)c2O1 (stereo unspecified) ; what melting point value has been reported?
Solution: > 240 °C

Exercise: Suppose we examine the compound C[C@H](CSC(=O)C(C)(C)C)C(=O)N(CC(=O)OC(C)(C)C)C1CCCC1 ; what melting point value has been reported?
Solution: 58 °C

Exercise: Suppose we examine the compound CCCC(C(=O)O)n1c(=O)c(=O)[nH]c2ccccc21 (stereo unspecified) ; what melting point value has been reported?
Solution: 272 to 275 °C

====

// melting point lookup, one value per entry

Here's what some known entries look like.
Compound	melting point
COc1ccc2c(c1)CC(NNc1ncnc3c1ncn3C1OC(CO)C(O)C1O)CO2 (centres undefined)	90 to 95 °C
CC12CCC3C(CC=C4CC(O)CCC43C)C1CC=C2Br (centres undefined)	162 to 164 °C
C=Cc1cc(OC)cc2cc(-c3ccc(OC)cc3)oc12	182 to 184 °C
COc1ccccc1C1(O)C(O)CC(c2ccccc2)(c2ccccc2)C2CN(C(=O)Cc3c[nH]c4ccc(O)cc34)CC21 (mixture of isomers)	230 to 235 °C
O=[N+]([O-])c1c(C=NO)cccc1OCc1ccccc1	141 to 142 °C
N#Cc1ccc2c(c1)NC(=O)C(O)C2 (centres undefined)	> 250 °C
Fc1ccc(C(c2ccc(F)cc2)N2CCN(CC=C3CCc4ccccc43)CC2)cc1	138 to 142 °C
NC(=O)C(=O)NC(C(=O)OC(c1ccccc1)c1ccccc1)c1ccco1 (centres undefined)	168 to 170 °C

Exercise: Suppose we examine the compound O=CN1C(=O)NC(=O)C12C(=O)N(Cc1ccc(Cl)c(Cl)c1)c1ccccc12 (centres undefined) ; what melting point value has been reported?
Solution: 244 to 246 °C

====

// melting point lookup, one value per entry

Compound	Measurement kind	Data value
CCC1c2ccccc2-c2cc(-c3cccc4c3oc3ccccc34)ccc2N1S(=O)(=O)c1ccc(O)cc1 (stereo not drawn)	melting point	218 to 220 °C
COc1ccc(S(=O)(=O)N2C(=O)C(c3ccccc3OC)(N3Cc4ccccc4C[C@H]3C(=O)N(C)C)c3cc(Cl)c(C)cc32)c(OC)c1 (stereo partly drawn)	melting point	160 °C
O=C1C(Cl)=C(N2CCN(S(=O)(=O)c3ccccc3C(F)(F)F)CC2)C(=O)c2ccccc21	melting point	122 to 124 °C
Cc1ccc(-c2cc(F)c(F)cc2-c2ccc(S(C)(=O)=O)cc2)cc1	melting point	147 to 148 °C
CC(C)(C)c1ccc(OCC(=O)O)cc1	melting point	93 to 95 °C
NS(=O)(=O)c1ccc(N2CCN(Cc3cn4cc(Cl)ccc4n3)CC2)cc1	melting point	255 to 256 °C
C(=Cc1ccc(-c2nc(-c3ccc(C=Cc4ccccc4)cc3)n(-c3ccccc3)n2)cc1)c1ccccc1	melting point	218 to 220 °C

Exercise: Suppose we examine the compound Cc1cccc(-c2[nH]c(C(C)C)nc2-c2ccc(F)c(-c3ccc[nH]3)c2)n1 ; what melting point value has been reported?
Solution: 103 to 106 °C
